- Method: NCI Yeast Anticancer Drug Screen. Data for the cln2 rad14 strain (AID 165);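 further: 0% = growth equal to vehicle treated cultures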
- Measurement Conditions: S. cerevisiae cln2 rad14 strain, at 50.0 µM, active compounds read high
Compounds without any hit were thinned out: in the full panel of roughly 79,000, 15% have a hit.
growth inhibition by entry:
Measurement Label: growth inhibition (%)

- Molecule: "Cn1cc(NC(=O)c2cc(NC(=O)CCCCCC(=O)Nc3cc(C(=O)Nc4cc(C(=O)NCCC(=N)N)n(C)c4)n(C)c3)cn2C)cc1C(=O)NCCC(=N)N"
  Unit Of Measurement: "%"
  Observed: -1.35
- Molecule: "O=S(=O)(O)c1cccc2c(O)cccc12"
  Unit Of Measurement: "%"
  Observed: 34.9
- Molecule: "O=c1[nH]c2nc3ccccc3c(=O)n2/c1=C/c1ccc(O)cc1"
  Unit Of Measurement: "%"
  Observed: 8.95
- Molecule: "N#CC(C#N)=C(N)/C(C#N)=C\\c1ccnc2ccccc12"
  Unit Of Measurement: "%"
  Observed: 15.1
- Molecule: "CCCC(=O)NS(=O)(=O)c1ccc(C)cc1"
  Unit Of Measurement: "%"
  Observed: -24.9
- Molecule: "COC1=C(OC)C(=O)c2cc(SC)c(=O)c(SC)cc2C1=O"
  Unit Of Measurement: "%"
  Observed: -22.1
- Molecule: "O=c1[nH]c(=S)c2[nH]c(=O)n(-c3ccccc3)c2[nH]1"
  Unit Of Measurement: "%"
  Observed: -26.7
- Molecule: "CC1(C)COC(c2ccc(C(F)(F)F)cc2C(O)c2ccc3ccccc3c2)=N1 (configuration not stated)"
  Unit Of Measurement: "%"
  Observed: 10.3
- Molecule: "CCCNC(=S)NN1C2CSC1CS2"
  Unit Of Measurement: "%"
  Observed: -33.2
- Molecule: "CSc1nc2c(cnn2C)c(=O)[nH]1"
  Unit Of Measurement: "%"
  Observed: -4.55
- Molecule: "c1ccc2c(c1)[nH]c1ccccc12"
  Unit Of Measurement: "%"
  Observed: -3.05
- Molecule: "CCOC(=O)CCc1nc2ccccc2[nH]1"
  Unit Of Measurement: "%"
  Observed: 3.7
- Molecule: "CCc1ccc(N=Nc2c(F)c(F)c(NC(C)=O)c(F)c2F)cc1"
  Unit Of Measurement: "%"
  Observed: 6.9
- Molecule: "OCC(O)C(O)C(O)c1nn(-c2ccc(Cl)cc2)c2nc3cc(Cl)c(Cl)cc3nc12 (configuration not stated)"
  Unit Of Measurement: "%"
  Observed: 15.4
- Molecule: "CC1=CC2N(C=C1)C(c1cccc([N+](=O)[O-])c1)=NON2c1cc(C)ccn1 (configuration not stated)"
  Unit Of Measurement: "%"
  Observed: 13.6
- Molecule: "COc1ccc(C=O)c(C(=O)O)c1OC"
  Unit Of Measurement: "%"
  Observed: 17.2
- Molecule: "Cc1ccc(S(=O)(=O)Oc2nc3nc4ccccc4nc3nc2OS(=O)(=O)c2ccc(C)cc2)cc1"
  Unit Of Measurement: "%"
  Observed: -10.5
- Molecule: "CC1(C)CC(=O)C(/C=N/C(=S)NCc2ccccc2)=C(O)C1"
  Unit Of Measurement: "%"
  Observed: 14.4
- Molecule: "CCOCC1c2ccccc2CCN1Cc1c[nH]c2ccccc12 (configuration not stated)"
  Unit Of Measurement: "%"
  Observed: -5.15
- Molecule: "O=C1c2ccccc2C(C2N=Nc3ccccc32)c2ccccc21 (configuration not stated)"
  Unit Of Measurement: "%"
  Observed: 26.1
- Molecule: "COC(=O)C(C)(C)c1ccccc1C(C)(C)C(=O)OC"
  Unit Of Measurement: "%"
  Observed: -7.95
- Molecule: "CC[N+](C)(C)CC(O)(O)C(F)F"
  Unit Of Measurement: "%"
  Observed: 2.25
- Molecule: "Cc1cc(=O)c2c3c(ccc2[nH]1)Oc1ccccc1O3"
  Unit Of Measurement: "%"
  Observed: 8.45
- Molecule: "O=C1O[C@@H](c2ccc3c(c2)OCO3)C2C(=O)O[C@@H](c3ccc4c(c3)OCO4)C12 (some centres not stated)"
  Unit Of Measurement: "%"
  Observed: 19.4
- Molecule: "Cc1cc([NH-])c([NH-])cc1C.[Cl][Pt+2][Cl]"
  Unit Of Measurement: "%"
  Observed: -0.3
- Molecule: "CN(C)CC1CCC/C1=N/OC(=O)c1ccccc1 (configuration not stated)"
  Unit Of Measurement: "%"
  Observed: -17.9
- Molecule: "O=c1[nH]c2nc[nH]c(=O)c2[nH]1"
  Unit Of Measurement: "%"
  Observed: -11.8
- Molecule: "O=c1cc(-c2ccccc2)c2ccc(O)cc2o1"
  Unit Of Measurement: "%"
  Observed: 3
- Molecule: "COC(=O)Cc1ccccc1C(c1ccccc1)c1ccccc1"
  Unit Of Measurement: "%"
  Observed: 6.7
- Molecule: "C/C(=C(/C)c1cc[n+](C)cc1)c1cc[n+](C)cc1"
  Unit Of Measurement: "%"
  Observed: 44.4
- Molecule: "C=CCNC(=O)C(=O)NCC=C"
  Unit Of Measurement: "%"
  Observed: -24.6
- Molecule: "CN(C)/C=N/c1cc(=O)n(C)c(=O)n1C"
  Unit Of Measurement: "%"
  Observed: 2.9
- Molecule: "CNC(=O)C1CCC(=O)N1CN(C(C)=O)c1ccccc1 (configuration not stated)"
  Unit Of Measurement: "%"
  Observed: 13.7
- Molecule: "COC(=O)CSc1n[nH]c(-c2ccccc2)n1"
  Unit Of Measurement: "%"
  Observed: -1
- Molecule: "Cc1nc2ccccc2c(=O)n1-c1ccc(-c2nnc(Sc3nnc(-c4ccc(-n5c(C)nc6ccccc6c5=O)cc4)n3-c3ccccc3)n2-c2ccccc2)cc1"
  Unit Of Measurement: "%"
  Observed: -17.6
- Molecule: "CCCCC(=O)N1SC(NC(=O)OC)=Nc2ccccc21"
  Unit Of Measurement: "%"
  Observed: 67.2
- Molecule: "CCOC(=O)c1c2c(c(-c3ccccc3)n1C)C(=O)C(C)=C(C)C2=O"
  Unit Of Measurement: "%"
  Observed: -28.9
- Molecule: "O=P(O)(O)CCC(O)CO (configuration not stated)"
  Unit Of Measurement: "%"
  Observed: -78.2
- Molecule: "Nc1nc(-c2ccccc2)c(N=Nc2ccc([N+](=O)[O-])cc2Cl)s1"
  Unit Of Measurement: "%"
  Observed: -13.1
- Molecule: "Cn1cnnc1Sc1c([N+](=O)[O-])nc(-c2ccc([N+](=O)[O-])cc2)n1C"
  Unit Of Measurement: "%"
  Observed: 35.1
- Molecule: "CCCCC(=O)N[C@H]1C[C@H]2CC[C@@]1(C)C2(C)C"
  Unit Of Measurement: "%"
  Observed: -4.05
- Molecule: "C=CCc1cccc(C2N(Cc3ccc(OC)cc3OC)CCCN2Cc2ccc(OC)cc2OC)c1O"
  Unit Of Measurement: "%"
  Observed: 16.6
- Molecule: "CCNC(=O)C1CCN(Cc2c[nH]c3ccccc23)CC1"
  Unit Of Measurement: "%"
  Observed: -12.9
- Molecule: "COc1cc2c(C)cc(O)cc2c2cc(O)c(C)cc12"
  Unit Of Measurement: "%"
  Observed: -5.9
- Molecule: "Cc1cc(C)c2nccc(/C=C/c3ccc(N(C)C)cc3)c2c1"
  Unit Of Measurement: "%"
  Observed: -27.2
- Molecule: "O=C(C(=O)c1cccc(C(=O)C(=O)c2ccccc2)c1)c1ccccc1"
  Unit Of Measurement: "%"
  Observed: 17.3
- Molecule: "CC1(C)COCN1COCCOCN1COCC1(C)C"
  Unit Of Measurement: "%"
  Observed: 7.05

Cited source: PubChem BioAssay (NCI)
